- Tested on: SMMC-7721
- method.description: Antiproliferative activity against human SMMC7721 cells after 48 hrs by MTT assay
- Type: functional, cell-based
- condition.description: SMMC-7721, 48 h
measured.quantity: pIC50
Worth noting: pIC50 values are minus log10 of concentrations stated in mol/L.

Tell me measured pIC50 for "CNC(=O)c1ccc(OC)c(OCCN2CCNCC2)c1-c1c(C(=O)NC)ccc(OC)c1OCC(=O)Nc1ccc(F)c(Cl)c1" please.
3.90

====

- Test system: A-431
- method.description: Antiproliferative activity against human A431 cells abnormally expressing EGFR after 48 hrs by MTT assay
- Format: functional, cell-based
- condition.description: A-431, 48 h
measured.quantity: IC50
Kindly format the answer as number then unit.

>  <compound>
COc1ccc2c(=O)oc3c(OC)cc(CCN(C)C)c4c(=O)oc1c2c34 [TASPINE]

>  <measured.quantity>
IC50

>  <value.observed>
11.2 µM

$$$$
>  <compound>
CNC(=O)c1ccc(OC)c(O)c1-c1c(C(=O)NC)ccc(OC)c1OCCN1CCOCC1

>  <measured.quantity>
IC50

>  <value.observed>
75.9 µM

$$$$

Switching to the query record.
Output reported IC50 of the compound "CNC(=O)c1ccc(OC)c(O)c1-c1c(C(=O)NC)ccc(OC)c1O" on A-431.
104 µM

====

- Test system: A549
- method.description: Antiproliferative activity against human A549 cells after 48 hrs by MTT assay
- Type: functional, cell-based
- condition.description: A549, 48 h
pIC50: −log10 of the molar value.
Label y when pIC50 is at or above 4; anything below gets n.

Some solved cases for reference:
>  <compound>
CNC(=O)c1ccc(OC)c(OCCN(C)C)c1-c1c(C(=O)NC)ccc(OC)c1OCC(=O)Nc1ccc(F)c(Cl)c1

>  <discrete.label>
n

$$$$
>  <compound>
COc1ccc2c(=O)oc3c(OC)cc(CCN(C)C)c4c(=O)oc1c2c34 [TASPINE]

>  <discrete.label>
y

$$$$
>  <compound>
CNC(=O)c1ccc(OC)c(OCCN2CCOCC2)c1-c1c(C(=O)NC)ccc(OC)c1OCC(=O)Nc1ccc(F)c(Cl)c1

>  <discrete.label>
n

$$$$
>  <compound>
COC(=O)c1cc(OC(=O)c2ccc(OC)c(O)c2)c(OC)cc1CCN1CCOCC1

>  <discrete.label>
n

$$$$
>  <compound>
CNC(=O)c1ccc(OC)c(O)c1-c1c(C(=O)NC)ccc(OC)c1O

>  <discrete.label>
y

$$$$
>  <compound>
COC(=O)c1cc(OC(=O)c2ccc(OC)c(O)c2)c(OC)cc1CCNc1ccc(F)c(Cl)c1

>  <discrete.label>
n

$$$$

Answer whether pIC50 of "CNC(=O)c1ccc(OC)c(O)c1-c1c(C(=O)NC)ccc(OC)c1OCC(=O)Nc1ccc(F)c(Cl)c1" is greater than or equal to 4.
y

Decide: pIC50 of "CNC(=O)c1ccc(OC)c(O)c1-c1c(C(=O)NC)ccc(OC)c1OCCN1CCOCC1" >= 4?
n

Item "COC(=O)c1cc(OC(=O)c2ccc(OC)c(O)c2)c(OC)cc1CCN(C)C" with pIC50 of 4 or above?
n

====

- System: HEK293
- method.description: Antiproliferative activity against human HEK293 cells overexpressing EGFR after 48 hrs by MTT assay
- Format: cell-based
- condition.description: HEK293, 48 h
measured.quantity: IC50 (µM)
The response must be a number in µM with no trailing unit.

Answered examples (2):
>  <smiles.input>
CNC(=O)c1ccc(OC)c(O)c1-c1c(C(=O)NC)ccc(OC)c1OCCN1CCOCC1

>  <IC50 [µM]>
116

$$$$
>  <smiles.input>
CNC(=O)c1ccc(OC)c(O)c1-c1c(C(=O)NC)ccc(OC)c1O

>  <IC50 [µM]>
88

$$$$

We next turn to a different molecule, shown below.
Note down IC50 recorded for "COc1ccc2c(=O)oc3c(OC)cc(CCN(C)C)c4c(=O)oc1c2c34"
16
